# testTarget: FGFR1 (Homo sapiens (Human), UniProt P11362)
# Sequence (P11362 22-822): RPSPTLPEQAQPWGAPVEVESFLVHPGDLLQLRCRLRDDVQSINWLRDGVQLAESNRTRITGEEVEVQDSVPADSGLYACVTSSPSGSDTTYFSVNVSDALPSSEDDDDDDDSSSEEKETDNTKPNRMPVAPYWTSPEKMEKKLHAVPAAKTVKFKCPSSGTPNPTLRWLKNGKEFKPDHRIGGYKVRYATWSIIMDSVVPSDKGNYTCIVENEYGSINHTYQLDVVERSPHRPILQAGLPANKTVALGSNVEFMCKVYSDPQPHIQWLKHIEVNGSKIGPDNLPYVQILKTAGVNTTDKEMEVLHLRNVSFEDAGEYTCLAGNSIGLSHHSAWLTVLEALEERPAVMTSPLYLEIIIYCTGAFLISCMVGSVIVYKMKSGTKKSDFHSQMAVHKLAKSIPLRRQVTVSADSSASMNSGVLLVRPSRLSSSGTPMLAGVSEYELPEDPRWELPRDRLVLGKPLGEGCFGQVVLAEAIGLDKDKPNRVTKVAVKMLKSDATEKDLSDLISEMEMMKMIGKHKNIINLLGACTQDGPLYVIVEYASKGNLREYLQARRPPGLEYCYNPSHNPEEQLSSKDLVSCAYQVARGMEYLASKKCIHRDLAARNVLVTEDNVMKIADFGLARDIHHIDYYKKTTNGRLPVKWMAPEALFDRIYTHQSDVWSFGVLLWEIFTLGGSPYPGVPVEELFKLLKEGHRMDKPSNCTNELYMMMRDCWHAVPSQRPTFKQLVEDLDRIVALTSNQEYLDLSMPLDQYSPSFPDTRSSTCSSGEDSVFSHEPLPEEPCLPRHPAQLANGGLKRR
# method: Kinase assay, binding constants (Kd), kinase-tagged T7 phage, qPCR
Assign Kd to each entry below.

                                   compound  resultvalue
0  C[C@@H](Oc1ccc2[nH]nc(-c3ccc(N4CC5(CCN5S(C)(=O)=O)C4)nc3)c2c1)c1c(Cl)cncc1Cl [Example 100]   1 to 20 nM

Report Kd for every entry below.
1. C[C@@H](Oc1ccc2[nH]nc(-c3cnc(N4CCC5(CCS(=O)(=O)C5)C4)nc3)c2c1)c1c(Cl)cncc1Cl (stereo partly shown) [Example 127]
2. C[C@@H](Oc1ccc2[nH]nc(-c3ccc(N4CC5(CN(CC(F)(F)F)C5)C4)nc3)c2c1)c1c(Cl)cncc1Cl [Example 224]
3. C[C@@H](Oc1ccc2[nH]nc(-c3cnc(N4CC5(CN(CC(F)(F)F)C5)C4)c(C#N)c3)c2c1)c1c(Cl)cncc1Cl [Example 329]
4. C[C@@H](Oc1ccc2[nH]nc(-c3cnn(C4CCN(C5COC5)CC4)c3)c2c1)c1cc(F)cc(F)c1 [Example 168]
5. C[C@@H](Oc1ccc2[nH]nc(-c3cnc(N4CCCC4)c(C#N)c3)c2c1)c1c(Cl)cnc(F)c1Cl [Example 292]

Output:
1. 20 to 100 nM
2. 1 to 20 nM
3. 100 to 300 nM
4. 100 to 300 nM
5. > 300 nM

Report Kd for every entry below.
1. Cc1cnnc(C)c1[C@@H](C)Oc1ccc2[nH]nc(-c3cnc(N4CCC5(CC4)CCS(=O)(=O)C5)nc3)c2c1 [Example 152]
2. C[C@@H](Oc1ccc2[nH]nc(-c3cnc(N4CC[C@@H](O)C4)c(C#N)c3)c2c1)c1c(Cl)cncc1Cl [Example 297]
3. Cc1ncc(Cl)c([C@@H](C)Oc2cc3c(-c4cnc(N5CC6(C5)CN(S(C)(=O)=O)C6)c(F)c4)n[nH]c3cc2F)c1Cl [Example 269]
4. C[C@@H](Oc1ccc2[nH]nc(-c3cnn(C4CCN(CCO)CC4)c3)c2c1)c1c(Cl)cncc1Cl [Example 79]
5. Cc1cnnc(C)c1[C@H](C)Oc1ccc2[nH]nc(-c3cnc(N4CCC5(CC4)CCS(=O)(=O)C5)nc3)c2c1 [Example 154]

Output:
1. 20 to 100 nM
2. 20 to 100 nM
3. 20 to 100 nM
4. 1 to 20 nM
5. > 300 nM

* * *

# testTarget: UniProtKB P21802
# Sequence (P21802 22-821): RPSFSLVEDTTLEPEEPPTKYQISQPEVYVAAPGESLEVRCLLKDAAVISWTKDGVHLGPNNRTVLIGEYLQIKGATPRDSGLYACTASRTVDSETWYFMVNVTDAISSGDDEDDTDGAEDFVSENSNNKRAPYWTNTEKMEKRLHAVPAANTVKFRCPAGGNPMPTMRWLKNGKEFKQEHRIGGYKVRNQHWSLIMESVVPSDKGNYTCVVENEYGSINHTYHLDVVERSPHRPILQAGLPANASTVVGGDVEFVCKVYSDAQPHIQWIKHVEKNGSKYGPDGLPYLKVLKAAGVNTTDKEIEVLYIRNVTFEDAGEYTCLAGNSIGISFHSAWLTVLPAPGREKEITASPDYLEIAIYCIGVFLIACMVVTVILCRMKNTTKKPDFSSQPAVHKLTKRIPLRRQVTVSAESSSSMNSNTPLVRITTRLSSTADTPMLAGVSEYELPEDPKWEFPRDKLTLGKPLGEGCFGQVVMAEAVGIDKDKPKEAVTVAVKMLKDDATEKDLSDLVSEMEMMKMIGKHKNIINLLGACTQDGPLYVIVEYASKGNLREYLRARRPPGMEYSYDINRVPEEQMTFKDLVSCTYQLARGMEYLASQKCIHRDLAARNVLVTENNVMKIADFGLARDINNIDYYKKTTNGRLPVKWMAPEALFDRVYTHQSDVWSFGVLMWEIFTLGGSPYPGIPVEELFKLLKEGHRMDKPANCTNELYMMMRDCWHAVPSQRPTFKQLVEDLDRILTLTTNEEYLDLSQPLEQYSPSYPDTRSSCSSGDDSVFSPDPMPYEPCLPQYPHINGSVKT
# method: Kinase assay, binding constants (Kd), kinase-tagged T7 phage, qPCR
Assign Kd to each entry below.

>>> df
                                   molecule   resultvalue
0  C[C@@H](Oc1cc2c(-c3cnc(N4CC5(C4)CN(S(C)(=O)=O)C5)c(C#N)c3)n[nH]c2cc1Cl)c1c(Cl)cncc1Cl  20 to 100 nM
1  CCN1CC[C@@H](n2cc(-c3n[nH]c4ccc(O[C@H](C)c5c(Cl)cncc5Cl)cc34)cn2)C1    1 to 20 nM
2  CCOC(=O)N1CC2(C1)CN(c1ccc(-c3n[nH]c4ccc(O[C@@H](C)c5c(Cl)cnc(F)c5Cl)cc34)cn1)C2      > 300 nM
3  C[C@@H](Oc1ccc2[nH]nc(-c3ccc(N4CC5(CCN(S(C)(=O)=O)C5)C4)nc3)c2c1)c1c(Cl)cncc1Cl [Example 115]    1 to 20 nM
4  COc1cc2[nH]nc(-c3ccc(N4CC5(C4)CN(S(C)(=O)=O)C5)nc3)c2cc1O[C@H](C)c1c(Cl)cncc1Cl    1 to 20 nM

Report Kd for every entry below.
1. CCOC(=O)N1CC2(C1)CN(c1ncc(-c3n[nH]c4ccc(O[C@H](C)c5c(Cl)cnc(C)c5Cl)cc34)cn1)C2
2. C[C@@H](Oc1ccc2[nH]nc(-c3cnn(C4CCN(S(C)(=O)=O)CC4)c3)c2c1)c1c(Cl)cncc1Cl

Output:
100 to 300 nM
1 to 20 nM

* * *

# testTarget: FGFR3 (V555M) (Homo sapiens (Human), UniProt P22607, V555M)
# Sequence (P22607 23-806 V555M): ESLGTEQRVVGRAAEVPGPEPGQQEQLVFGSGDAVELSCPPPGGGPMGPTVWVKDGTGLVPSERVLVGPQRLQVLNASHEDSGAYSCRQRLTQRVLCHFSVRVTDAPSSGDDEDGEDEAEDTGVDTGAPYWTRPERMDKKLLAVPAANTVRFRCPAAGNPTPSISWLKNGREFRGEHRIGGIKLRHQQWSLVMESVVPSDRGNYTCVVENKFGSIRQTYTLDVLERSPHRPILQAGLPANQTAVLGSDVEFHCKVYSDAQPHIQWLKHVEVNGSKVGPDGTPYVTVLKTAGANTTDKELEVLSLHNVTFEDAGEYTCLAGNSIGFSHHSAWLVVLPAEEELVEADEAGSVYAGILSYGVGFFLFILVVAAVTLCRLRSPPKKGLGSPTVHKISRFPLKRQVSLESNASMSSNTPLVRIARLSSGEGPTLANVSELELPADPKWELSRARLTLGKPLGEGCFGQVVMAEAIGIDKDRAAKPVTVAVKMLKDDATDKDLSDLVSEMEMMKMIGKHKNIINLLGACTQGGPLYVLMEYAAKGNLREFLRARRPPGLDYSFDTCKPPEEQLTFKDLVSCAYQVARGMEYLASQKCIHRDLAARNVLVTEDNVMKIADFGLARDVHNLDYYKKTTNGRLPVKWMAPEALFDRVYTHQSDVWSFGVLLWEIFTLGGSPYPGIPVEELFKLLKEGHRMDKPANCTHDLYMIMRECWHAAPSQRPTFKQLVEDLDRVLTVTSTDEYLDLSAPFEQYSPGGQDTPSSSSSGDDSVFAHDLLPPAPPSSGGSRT
# method: Kinase assay, binding constants (Kd), kinase-tagged T7 phage, qPCR
# assayContext: V555M mutant
Assign Kd to each entry below.

Example results:
In [3]: df
Out[3]:
                                 chemsmiles                                testtarget   resultvalue
0  COc1cc2[nH]nc(-c3cnc(N4CC(C)(C)C4)c(S(C)(=O)=O)c3)c2cc1O[C@H](C)c1c(Cl)cncc1Cl  FGFR3 (V555M) (Homo sapiens (Human), UniProt P22607, V555M)  20 to 100 nM
1  C[C@@H](Oc1ccc2[nH]nc(-c3cnc(N4CC5(CNC5)C4)nc3)c2c1)c1c(Cl)cncc1Cl  FGFR3 (V555M) (Homo sapiens (Human), UniProt P22607, V555M)    1 to 20 nM

Report Kd for every entry below.
1. C[C@@H](Oc1ccc2[nH]nc(-c3cnc(N4CC5(CN(CC(F)(F)F)C5)C4)c(C#N)c3)c2c1)c1c(Cl)cncc1Cl
2. C[C@@H](Oc1ccc2[nH]nc(-c3ccc(N4CCN(S(=O)(=O)N5CCN(C)CC5)CC4)nc3)c2c1)c1c(Cl)cncc1Cl
3. C[C@@H](Oc1ccc2[nH]nc(-c3ccc(N4CC5(CCCS(=O)(=O)C5)C4)nc3)c2c1)c1c(Cl)cncc1Cl

Output:
["1 to 20 nM", "1 to 20 nM", "1 to 20 nM"]

Report Kd for every entry below.
1. C[C@@H](Oc1cc2c(-c3cnc(N4CCC4)c(CN(C)C)c3)n[nH]c2cc1Cl)c1c(Cl)cncc1Cl
2. COc1cc2[nH]nc(-c3cnc(N4CCC4)c(C#N)c3)c2cc1O[C@H](C)c1c(C)cnnc1C

Output:
1. 20 to 100 nM
2. 1 to 20 nM

* * *

# testTarget: FGFR3-BAIAP2L1 Ba/F3 cells (Homo sapiens)
# Sequence (P22607 23-806 limits assumed, change not shown): as the sequence (P22607 23-806 V555M) above, with M533V counted along it
# method: Ba/F3 cell viability assay (CellTiter-Glo 2.0), FGFR3-BAIAP2L1 Ba/F3
# Type: cell-based
# assayContext: read-out: Ba/F3 Cells FGFR3 (IC50 nM); FGFR3-BAIAP2L1 Ba/F3 cells, 48 hours, Cell Titer Glo 2.0
Assign IC50 to each entry below.

Report IC50 for every entry below.
1. C[C@@H](Oc1ccc2[nH]nc(-c3ccc(N4CCN(C(=O)N(C)C)CC4)nc3)c2c1)c1c(Cl)cncc1Cl [Example 5]
2. C[C@@H](Oc1ccc2[nH]nc(-c3ccc(N4CC5(C4)CN(S(C)(=O)=O)C5)nc3)c2c1)c1c(Cl)cccc1Cl [Example 170]
3. C[C@@H](Oc1ccc2[nH]nc(-c3ccc(N4CCN(C(N)=O)C5(CC5)C4)nc3)c2c1)c1c(Cl)cncc1Cl [Example 24]
4. C[C@@H](Oc1ccc2[nH]nc(-c3cnc(N4CCCN(C5COC5)CC4)nc3)c2c1)c1c(Cl)cncc1Cl [Example 60]
5. CCOC(=O)N1CC2(C1)CN(c1ccc(-c3n[nH]c4ccc(O[C@H](C)c5c(Cl)cncc5Cl)cc34)cn1)C2 [Example 121]
6. C[C@@H](Oc1ccc2[nH]nc(-c3cnc(N4CCC5(CC4)C(=O)NCCN5C)c(F)c3)c2c1)c1c(Cl)cncc1Cl [Example 44]
7. Cc1cnnc(C)c1[C@@H](C)Oc1ccc2[nH]nc(-c3ccc(N4CC5(C4)CN(S(C)(=O)=O)C5)nc3)c2c1 [Example 148]
8. Cc1ncc(Cl)c([C@@H](C)Oc2ccc3[nH]nc(-c4cnn(C5CCN(C6CCC6)CC5)c4)c3c2)c1Cl [Example 95]

Output:
1: 1 to 20 nM; 2: 20 to 100 nM; 3: 1 to 20 nM; 4: 1 to 20 nM; 5: 1 to 20 nM; 6: 1 to 20 nM; 7: 20 to 100 nM; 8: 20 to 100 nM

Report IC50 for every entry below.
1. C[C@@H](Oc1ccc2[nH]nc(-c3cnc(N4CC5(CCS(=O)(=O)C5)C4)nc3)c2c1)c1c(Cl)cncc1Cl [Example 122]
2. C[C@@H](Oc1ccc2[nH]nc(-c3ccc(N4CCN(C)CC4=O)nc3)c2c1)c1c(Cl)cncc1Cl [Example 38]

Output:
["1 to 20 nM", "1 to 20 nM"]

Report IC50 for every entry below.
1. C[C@@H](Oc1ccc2[nH]nc(-c3ccc(Cl)nc3)c2c1)c1c(Cl)cncc1Cl [Example 18]
2. C[C@@H](Oc1ccc2[nH]nc(-c3ccc(F)nc3)c2c1)c1c(Cl)cncc1Cl [Example 25]
3. C[C@@H](Oc1ccc2[nH]nc(-c3ccc(C4CCN(S(C)(=O)=O)CC4)nc3)c2c1)c1c(Cl)cncc1Cl [Example 70]
4. C[C@@H](Oc1ccc2[nH]nc(-c3cnc(N4CC5(C4)CN(S(C)(=O)=O)C5)nc3)c2c1)c1c(Cl)cncc1Cl [Example 119]
5. C[C@@H](Oc1ccc2[nH]nc(-c3ccc(N4CCN(C(N)=O)CC4)nc3)c2c1)c1c(Cl)cncc1Cl [Example 12]

Output:
1. 20 to 100 nM
2. 20 to 100 nM
3. 1 to 20 nM
4. 1 to 20 nM
5. 1 to 20 nM
